Assay: Mouse liver microsome stability assay
Assay type: in vitro ADME
Conditions: male, CD1, mouse, microsomes, pH 7.4
reported.endpoint: half-life at 0.5 μM (min)

Examples with answers:
compound | reported.endpoint | measured.value
Cn1cc(-c2cc(NS(C)(=O)=O)ccc2OCc2ccccc2)c2cc[nH]c2c1=O | half-life at 0.5 μM | 18
Cn1nc(-c2cc(NS(C)(=O)=O)ccc2Oc2ccc(F)cc2F)c2cc[nH]c2c1=O | half-life at 0.5 μM | 59
CN(C)Cc1cc2c(-c3cc(S(C)(=O)=O)ccc3Oc3ccc(F)cc3F)cn(C)c(=O)c2[nH]1 | half-life at 0.5 μM | 91
CNS(=O)(=O)Nc1ccc(OC2CCCOC2)c(-c2cn(C)c(=O)c3[nH]ccc23)c1 (centres unmarked) | half-life at 0.5 μM | 13
Cn1cc(-c2cc(NS(=O)(=O)CC(F)(F)F)ccc2OC2CCOCC2)c2cc[nH]c2c1=O | half-life at 0.5 μM | 60
Cn1cc(-c2cc(S(C)(=O)=O)ccc2Oc2ccc(F)cc2F)c2cc(C(=O)Nc3nccs3)[nH]c2c1=O | half-life at 0.5 μM | 20.3
Cn1nc(-c2cc(N)ccc2Oc2ccc(F)cc2F)c2cc[nH]c2c1=O | half-life at 0.5 μM | 6
Cn1cc(-c2cc(S(C)(=O)=O)ccc2OCC2(C)CC2)c2cc[nH]c2c1=O | half-life at 0.5 μM | 72
Cn1cc(-c2cc(NS(=O)(=O)CCF)ccc2Oc2c(F)cc(F)cc2F)c2cc[nH]c2c1=O | half-life at 0.5 μM | 8
CCOC(=O)c1cc2c(-c3cc(N)ccc3Oc3ccccc3)cn(C)c(=O)c2[nH]1 | half-life at 0.5 μM | 3

1. Cn1cc(-c2cc(C(=O)NCC3CCCO3)ccc2Oc2ccccc2)c2cc[nH]c2c1=O (centres unmarked)
2. Cn1cc(-c2cc(S(N)(=O)=O)cnc2NC2CCCCC2)c2cc[nH]c2c1=O
3. CCNc1ccc(Oc2ccccc2)c(-c2nn(C)c(=O)c3[nH]c(C(=O)OCC)cc23)c1
hey, can you rank those compounds up there by half-life at 0.5 μM? biggest number first please Form entry: labels listed in requested order.
2, 1, 3

###

Test: Human liver microsome stability assay
Assay type: in vitro ADME
Conditions: both sexes, human, microsomes, pH 7.4
reported.endpoint: half-life at 0.5 μM (min)

Examples with answers:
compound | half-life at 0.5 μM [min]
Cc1ccc(S(=O)(=O)n2ccc3c(-c4cc(NS(C)(=O)=O)ccc4Oc4ccccc4)cn(C)c(=O)c32)cc1 [Example 7] | 12
Cn1cc(-c2cc(S(C)(=O)=O)ccc2Nc2ccc(F)cc2)c2cc[nH]c2c1=O [Example 332] | 65
Cn1cc(-c2ccccc2-c2ccccc2)c2cc[nH]c2c1=O [Example 196] | 59
Cn1cc(-c2cc(S(C)(=O)=O)ccc2Oc2cc(F)cc(F)c2)c2cc[nH]c2c1=O [Example 176] | 48
CC1CC1COc1ccc(S(C)(=O)=O)cc1-c1cn(C)c(=O)c2[nH]ccc12 (centres unmarked) [Example 223] | 54

a. Cn1cc(-c2cc(NS(C)(=O)=O)ccc2OC2CCCCC2)c2cc[nH]c2c1=O [Example 57]
b. CN1CCCC1CCOc1ccc(S(C)(=O)=O)cc1-c1cn(C)c(=O)c2[nH]ccc12 (centres unmarked) [Example 225]
c. Cn1cc(-c2cc(S(C)(=O)=O)ccc2Oc2ccc3c(c2)CCC3)c2cc[nH]c2c1=O [Example 191]
hey, can you rank those compounds up there by half-life at 0.5 μM? biggest number first please Form entry: labels listed in requested order.
b, a, c
(b: 52 min, a: 13 min, c: 7 min)
